Where do the numbers come from? From paper PMC4137986.

Sequence of the target: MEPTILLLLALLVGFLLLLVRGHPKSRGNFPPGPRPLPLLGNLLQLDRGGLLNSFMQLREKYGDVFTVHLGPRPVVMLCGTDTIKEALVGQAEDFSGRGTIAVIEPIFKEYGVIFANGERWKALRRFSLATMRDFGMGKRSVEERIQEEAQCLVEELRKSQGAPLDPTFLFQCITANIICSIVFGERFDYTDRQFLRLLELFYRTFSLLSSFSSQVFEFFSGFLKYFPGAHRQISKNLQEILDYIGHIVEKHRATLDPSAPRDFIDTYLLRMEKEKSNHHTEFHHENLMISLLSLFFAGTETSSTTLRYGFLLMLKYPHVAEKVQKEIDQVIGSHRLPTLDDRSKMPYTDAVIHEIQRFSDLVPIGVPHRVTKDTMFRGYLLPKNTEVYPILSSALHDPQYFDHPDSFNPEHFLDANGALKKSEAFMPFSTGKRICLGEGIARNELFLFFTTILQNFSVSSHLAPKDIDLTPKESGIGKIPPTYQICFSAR
property: Ki (µM)
Entry rule: numbers only, all in µM.

Measured Ki, "C#Cc1ccccc1-c1cc(=O)c2ccccc2o1" : 15.7
